Values were extracted from the supplement of paper PMC11061612.

System: SU-DHL-6 (B-Cell Non-Hodgkin's Lymphoma)
RUN_DESCRIPTION: combination Emax (second highest fraction inhibited in the dose matrix, 72 h); higher = more inhibition; extreme values may be limits of the assay
Reported values of combination Emax for individual entries

>  <COMPOUND>
CC1(C)CCC(CN2CCN(c3ccc(C(=O)NS(=O)(=O)c4ccc(NCC5CCOCC5)c([N+](=O)[O-])c4)c(Oc4cnc5[nH]ccc5c4)c3)CC2)=C(c2ccc(Cl)cc2)C1 [Venetoclax] + C=CCn1c(=O)c2cnc(Nc3ccc(N4CCN(C)CC4)cc3)nc2n1-c1cccc(C(C)(C)O)n1 [AZD1775] (first compound max 1 µM, partner max 1 µM)

>  <combination Emax>
0.941

$$$$
>  <COMPOUND>
NC1(C(=O)N[C@@H](CCO)c2ccc(Cl)cc2)CCN(c2ncnc3[nH]ccc23)CC1 [Capivasertib] + CC(=O)c1c(C)c2cnc(Nc3ccc(N4CCNCC4)cn3)nc2n(C2CCCC2)c1=O [Palbociclib] (first compound max 10 µM, 7x7, partner max 10 µM)

>  <combination Emax>
1

$$$$
>  <COMPOUND>
NC1(C(=O)N[C@@H](CCO)c2ccc(Cl)cc2)CCN(c2ncnc3[nH]ccc23)CC1 [Capivasertib] + Cn1cnc2c(F)c(Nc3ccc(Br)cc3Cl)c(C(=O)NOCCO)cc21 [Selumetinib] (first compound max 10 µM, 7x7, partner max 10 µM)

>  <combination Emax>
1

$$$$

====

System: NCI-H69 (Small Cell Lung Carcinoma)
RUN_DESCRIPTION: Bliss excess, mean over the matrix (fraction); higher = more synergy
Below is a list of entries, each paired with its recorded Bliss excess value.
EXPERIMENTAL_ENDPOINT: Bliss excess

>  <MOLECULE>
C=CCn1c(=O)c2cnc(Nc3ccc(N4CCN(C)CC4)cc3)nc2n1-c1cccc(C(C)(C)O)n1 [AZD1775] + Nc1ccn([C@@H]2O[C@H](CO)[C@@H](O)C2(F)F)c(=O)n1 [Gemcitabine] (first compound max 1 µM, partner max 0.3 µM)

>  <ASSAY_VALUE>
-0.0754

$$$$
>  <MOLECULE>
Cn1cnc2c(F)c(Nc3ccc(Br)cc3Cl)c(C(=O)NOCCO)cc21 [Selumetinib] + CC(C)n1c(=O)n(C)c2cnc3cc(F)c(-c4ccc(OCCCN5CCCCC5)nc4)cc3c21 [AZD1390] (first compound max 10 µM, 7x7, partner max 0.3 µM)

>  <ASSAY_VALUE>
-0.0305

$$$$
>  <MOLECULE>
N#Cc1cnc(Nc2cc(NC[C@H]3CNCCO3)c(C(F)(F)F)cn2)cn1 [SRA737] + Nc1ccn([C@@H]2O[C@H](CO)[C@@H](O)C2(F)F)c(=O)n1 [Gemcitabine] (first compound max 10 µM, 7x7, partner max 0.3 µM)

>  <ASSAY_VALUE>
-0.0077

$$$$
>  <MOLECULE>
C[C@@H](Nc1cc(F)cc(F)c1)c1cc(C(=O)N(C)C)cc2c(=O)cc(N3CCOCC3)oc12 [AZD8186] + CC(=O)c1c(C)c2cnc(Nc3ccc(N4CCNCC4)cn3)nc2n(C2CCCC2)c1=O [Palbociclib] (first compound max 10 µM, 7x7, partner max 10 µM)

>  <ASSAY_VALUE>
0.0121

$$$$

====

Parameter Bliss excess: see the listing below.
System: CAL-54 (Kidney Carcinoma)
RUN_DESCRIPTION: Bliss excess, mean over the matrix (fraction); higher = more synergy

>  <MOLECULE>
COc1cccc2c1C(=O)c1c(O)c3c(c(O)c1C2=O)C[C@@](O)(C(=O)CO)C[C@@H]3O[C@H]1C[C@H](N)[C@H](O)[C@H](C)O1 [Doxorubicin] + Cc1cc2ncnn2cc1Nc1ncc2c(n1)n(C1CCOCC1)c(=O)n2C [AZD7648] (first compound max 1 µM, 7x7, partner max 10 µM)

>  <TGT>
CAL-54 (Kidney Carcinoma)

>  <Bliss excess>
0.0594

$$$$
>  <MOLECULE>
Cc1c2c(nn1C)CSCc1cc(n(C)n1)CSc1cc(c3ccccc3c1)OCCCc1c(C(=O)O)n(C)c3c-2c(Cl)ccc13 [AZD5991] + Cc1cc2ncnn2cc1Nc1ncc2c(n1)n(C1CCOCC1)c(=O)n2C [AZD7648] (first compound max 1 µM, 7x7, partner max 10 µM)

>  <TGT>
CAL-54 (Kidney Carcinoma)

>  <Bliss excess>
-0.0697

$$$$

====

Test system: NCI-H28 (Mesothelioma)
RUN_DESCRIPTION: Bliss excess, mean over the matrix (fraction); higher = more synergy
EXPERIMENTAL_ENDPOINT: Bliss excess

>  <COMPOUND>
Cc1c2c(nn1C)CSCc1cc(n(C)n1)CSc1cc(c3ccccc3c1)OCCCc1c(C(=O)O)n(C)c3c-2c(Cl)ccc13 [AZD5991] + C[C@@H](Nc1cc(F)cc(F)c1)c1cc(C(=O)N(C)C)cc2c(=O)cc(N3CCOCC3)oc12 [AZD8186] (first compound max 1 µM, 7x7, partner max 3 µM)

>  <TGT>
NCI-H28 (Mesothelioma)

>  <ASSAY_VALUE>
-0.0245

$$$$
>  <COMPOUND>
C[C@@H](Nc1cc(F)cc(F)c1)c1cc(C(=O)N(C)C)cc2c(=O)cc(N3CCOCC3)oc12 [AZD8186] + CC(=O)c1c(C)c2cnc(Nc3ccc(N4CCNCC4)cn3)nc2n(C2CCCC2)c1=O [Palbociclib] (first compound max 10 µM, 7x7, partner max 10 µM)

>  <TGT>
NCI-H28 (Mesothelioma)

>  <ASSAY_VALUE>
-0.0333

$$$$
>  <COMPOUND>
COc1cccc(OCCCN)c1-c1cc(Nc2cnc(C#N)cn2)n[nH]1 [Prexasertib] + CN(C)CCCOc1ccc(-c2ccc3ncc4c(c3c2)n(C2CCOCC2)c(=O)n4C)cn1 [AZD0156] (first compound max 1 µM, 7x7, partner max 1 µM)

>  <TGT>
NCI-H28 (Mesothelioma)

>  <ASSAY_VALUE>
-0.0307

$$$$
>  <COMPOUND>
N#Cc1cnc(Nc2cc(NC[C@H]3CNCCO3)c(C(F)(F)F)cn2)cn1 [SRA737] + CCc1c2c(nc3ccc(O)cc13)-c1cc3c(c(=O)n1C2)COC(=O)[C@]3(O)CC [SN-38] (first compound max 10 µM, 7x7, partner max 0.3 µM)

>  <TGT>
NCI-H28 (Mesothelioma)

>  <ASSAY_VALUE>
-0.104

$$$$

====

System: COLO-829 (Melanoma)
RUN_DESCRIPTION: combination Emax (second highest fraction inhibited in the dose matrix, 72 h); higher = more inhibition; extreme values may be limits of the assay

>  <MOLECULE>
C=CCn1c(=O)c2cnc(Nc3ccc(N4CCN(C)CC4)cc3)nc2n1-c1cccc(C(C)(C)O)n1 [AZD1775] + C[C@@H]1COCCN1C2=NC(=NC(=C2)C3(CC3)[S@](=N)(=O)C)C4=C5C=CNC5=NC=C4 [AZD6738] (first compound max 1 µM, partner max 10 µM)

>  <combination Emax>
0.129

$$$$
>  <MOLECULE>
CN(CCO)CC[C@H](CSc1ccccc1)Nc1ccc(S(=O)(=O)NC(=O)c2ccc(N3CCC([C@@H](O)c4ccccc4-c4ccc(Cl)cc4)CC3)cc2)cc1S(=O)(=O)C(F)(F)F [AZD4320] + CCN(CCO)CCCOc1ccc2c(Nc3cc(CC(=O)Nc4cccc(F)c4)[nH]n3)ncnc2c1 [AZD2811] (first compound max 1 µM, 7x7, partner max 1 µM)

>  <combination Emax>
0.196

$$$$
>  <MOLECULE>
Cc1cc2ncnn2cc1Nc1ncc2c(n1)n(C1CCOCC1)c(=O)n2C [AZD7648] + CCN(CCO)CCCOc1ccc2c(Nc3cc(CC(=O)Nc4cccc(F)c4)[nH]n3)ncnc2c1 [AZD2811] (first compound max 10 µM, 7x7, partner max 1 µM)

>  <combination Emax>
0.196

$$$$
>  <MOLECULE>
C[C@@H](c1ccc2nccn2c1)n1nnc2ncc(-c3cnn(C)c3)nc21 [Savolitinib] + CC1(C)CCC(CN2CCN(c3ccc(C(=O)NS(=O)(=O)c4ccc(NCC5CCOCC5)c([N+](=O)[O-])c4)c(Oc4cnc5[nH]ccc5c4)c3)CC2)=C(c2ccc(Cl)cc2)C1 [Venetoclax] (first compound max 1 µM, 7x7, partner max 1 µM)

>  <combination Emax>
0.209

$$$$
>  <MOLECULE>
COc1nnc2ccc(N3CCC(c4ccc(OCCN5CCN(C)C(=O)[C@H]5C)cc4)CC3)nn12 [AZD5153] + CCN(CCO)CCCOc1ccc2c(Nc3cc(CC(=O)Nc4cccc(F)c4)[nH]n3)ncnc2c1 [AZD2811] (first compound max 1 µM, 7x7, partner max 1 µM)

>  <combination Emax>
0.3

$$$$

====

Tested on: UMC-11 (Other Solid Carcinomas)
RUN_DESCRIPTION: Bliss excess, mean over the matrix (fraction); higher = more synergy

>  <MOLECULE>
CC1(C)CCC(CN2CCN(c3ccc(C(=O)NS(=O)(=O)c4ccc(NCC5CCOCC5)c([N+](=O)[O-])c4)c(Oc4cnc5[nH]ccc5c4)c3)CC2)=C(c2ccc(Cl)cc2)C1 [Venetoclax] + C[C@@H]1COCCN1C2=NC(=NC(=C2)C3(CC3)[S@](=N)(=O)C)C4=C5C=CNC5=NC=C4 [AZD6738] (first compound max 1 µM, 7x7, partner max 10 µM)

>  <Bliss excess>
-0.0331

$$$$
>  <MOLECULE>
CC(=O)Nc1cccc(-n2c(=O)n(C3CC3)c(=O)c3c(Nc4ccc(I)cc4F)n(C)c(=O)c(C)c32)c1 [Trametinib] + Cc1nc(-c2cn3c(n2)-c2ccc(-c4cnn(C(C)(C)C(N)=O)c4)cc2OCC3)n(C(C)C)n1 [Taselisib] (first compound max 1 µM, 7x7, partner max 10 µM)

>  <Bliss excess>
0.0075

$$$$
>  <MOLECULE>
CS(=O)(=O)CCNCc1ccc(-c2ccc3ncnc(Nc4ccc(OCc5cccc(F)c5)c(Cl)c4)c3c2)o1 [Lapatinib] + C[C@@H](Oc1cc(-c2cnn(C3CCNCC3)c2)cnc1N)c1c(Cl)ccc(F)c1Cl [Crizotinib] (first compound max 10 µM, 7x7, partner max 10 µM)

>  <Bliss excess>
-0.0964

$$$$
>  <MOLECULE>
C=CCn1c(=O)c2cnc(Nc3ccc(N4CCN(C)CC4)cc3)nc2n1-c1cccc(C(C)(C)O)n1 [AZD1775] + C[C@@H]1COCCN1C2=NC(=NC(=C2)C3(CC3)[S@](=N)(=O)C)C4=C5C=CNC5=NC=C4 [AZD6738] (first compound max 1 µM, partner max 10 µM)

>  <Bliss excess>
-0.0454

$$$$
